tested on: MET; assay: MET biochemical kinase assay; parameters: species or system human; concentration or dose not given beside the values
Class assignment keyed on Met Kinase % Inhibition, ranges group 1: < 30%; group 2: ≥ 30% and < 70%; group 3: ≥ 70%

COc1c(Cl)cc(C=C2C(=O)Nc3ccc(S(=O)(=O)Nc4ccc(C(F)(F)F)cc4)cc32)cc1C(C)(C)C
group 1
COC(=O)Cc1c(Cl)[nH]c(C=C2C(=O)Nc3ccc(S(=O)(=O)Nc4ccc(C(F)(F)F)cc4)cc32)c1C(=O)OC
group 1
COc1c(C)cc(C=C2C(=O)Nc3ccc(Br)c(C)c32)cc1C
group 1
Cc1cc(C=C2C(=O)Nc3ccc(S(=O)(=O)Nc4ccc(C(F)(F)F)cc4)cc32)ccc1O
group 3
N#Cc1cccc(C=C2C(=O)Nc3ccc(CCCl)cc32)c1
group 1
CC(=O)Oc1ccc(C=C2C(=O)Nc3ccc(CCCl)cc32)cc1OC(C)=O
group 3
CN1C(=O)C(=C2C(=O)Nc3ccc(S(=O)(=O)N4CCOCC4)cc32)c2ccccc21
group 2
CNS(=O)(=O)c1ccc2c(c1)C(=Cc1ccc(Br)s1)C(=O)N2
group 2
O=C1Nc2ccc(S(=O)(=O)N3CCOCC3)cc2C1=Cc1cc2ccccc2nc1Cl
group 2
CCc1cc(CC)c(C=C2C(=O)Nc3ccc(Br)c(C)c32)[nH]1
group 1
Cc1cn(C)cc1C=C1C(=O)Nc2ccc(S(=O)(=O)N3CCOCC3)cc21
group 1
O=C1Nc2ccc(I)cc2C1=CC(c1cccs1)C(F)(F)F (stereo not shown)
group 3
Cc1c(Br)cc(Br)c2c1C(=Cc1c[nH]cn1)C(=O)N2
group 2
Cc1[nH]c(C=C2C(=O)Nc3ccc(S(=O)(=O)N4CCOCC4)cc32)c(Br)c1Br
group 3
CC(C)(C)c1cc(C=C2C(=O)Nc3ccc(I)cc32)c(O)c(C(C)(C)C)c1
group 2
CC(C)(C)c1cc(C=C2C(=O)Nc3c(Br)cc(Br)cc32)ccc1OCc1ccccc1
group 1
O=C1Nc2ccc(S(=O)(=O)Nc3ccc(C(F)(F)F)cc3)cc2C1=Cc1ccc([N+](=O)[O-])c(O)c1
group 3
COc1ccc(C=C2C(=O)Nc3ccc(Br)c(C)c32)c(O)c1
group 3
O=C1Nc2ccc(S(=O)(=O)Nc3ccc(C(F)(F)F)cc3)cc2C1=Cc1ccccn1
group 1
Cc1c(Br)ccc2c1C(=Cc1ccc(N3CCOCC3)cc1)C(=O)N2
group 1
O=C1Nc2ccc(S(=O)(=O)Nc3ccc(C(F)(F)F)cc3)cc2C1=Cc1ccccc1
group 2
CCOC(=O)CCc1c(C(=O)OCC)[nH]c(C=C2C(=O)Nc3ccc(Br)c(C)c32)c1CC(=O)OCC
group 1
CNS(=O)(=O)c1ccc2c(c1)C(=Cc1ccc(O)c(Br)c1)C(=O)N2
group 3
COC1CC(C=C2C(=O)Nc3ccc(Br)c(C)c32)C(OC)O1 (stereo not shown)
group 2
O=C1Nc2ccc(S(=O)(=O)Nc3ccc(C(F)(F)F)cc3)cc2C1=CC(c1cccs1)C(F)(F)F (stereo not shown)
group 2
COc1ccc(OC)c(C=C2C(=O)Nc3ccc(Br)c(C)c32)c1
group 1
O=C1Nc2ccc(I)cc2C1=Cc1ccccc1Sc1ccc(Cl)cc1
group 3
Cc1cc(C=C2C(=O)Nc3ccc(S(=O)(=O)N4CCOCC4)cc32)cc(C(C)(C)C)c1O
group 3
COc1ccc(C=C2C(=O)Nc3ccc(S(=O)(=O)Nc4ccc(C(F)(F)F)cc4)cc32)c(O)c1
group 3
COc1cc(O)ccc1C=C1C(=O)Nc2ccc(S(=O)(=O)N3CCOCC3)cc21
group 2
O=C1Nc2c(Br)cc(Br)cc2C1=Cc1ccccn1
group 2

Taken from patent EP1247803A2.
